assay_target: T1, Pro-C1s
T1 construct: also called purified pro-C1s protein
T1 chain: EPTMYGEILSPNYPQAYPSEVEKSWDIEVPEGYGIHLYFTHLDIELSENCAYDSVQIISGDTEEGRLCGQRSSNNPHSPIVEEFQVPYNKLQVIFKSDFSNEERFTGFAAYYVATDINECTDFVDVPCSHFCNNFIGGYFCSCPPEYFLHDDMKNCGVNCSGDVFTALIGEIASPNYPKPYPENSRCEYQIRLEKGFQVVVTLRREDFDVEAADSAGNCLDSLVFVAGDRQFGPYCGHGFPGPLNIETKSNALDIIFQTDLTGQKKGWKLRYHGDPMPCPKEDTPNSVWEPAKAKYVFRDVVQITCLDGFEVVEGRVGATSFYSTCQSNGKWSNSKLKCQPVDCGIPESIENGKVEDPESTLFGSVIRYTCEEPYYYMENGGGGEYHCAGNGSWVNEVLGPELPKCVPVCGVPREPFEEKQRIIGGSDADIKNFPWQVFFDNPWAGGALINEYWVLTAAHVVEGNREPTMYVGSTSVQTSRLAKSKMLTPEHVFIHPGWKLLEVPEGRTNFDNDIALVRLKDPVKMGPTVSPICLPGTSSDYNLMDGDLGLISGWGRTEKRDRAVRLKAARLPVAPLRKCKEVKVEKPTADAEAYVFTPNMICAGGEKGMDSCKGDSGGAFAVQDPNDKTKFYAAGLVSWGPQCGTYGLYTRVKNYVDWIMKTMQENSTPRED
experimental_protocol: bio-layer interferometry (BLI), kinetic analysis
observed_property: Kd (nM)
Write the number in nM without appending the unit.

antibody IPN-M23 (antibody, V domains shown, Mouse monoclonal antibody (NZBW hybridoma)) VH: QVQLQQPGAELVRPGASVKLSCKVSGYTFTRYWMHWVKQRPGQGLEWIGEINPSNSDTDYNEEFKSKATLTVDKSSSTAYMHLSSLTSEDSAVYYCTIDDSVYGWFAYWGQGTLVTVSA VL: DIVMTQSPAIMFASPGERVTMTCSASSSISYMPWYPQKPGPSPKRWIYDTSKLASGVPARFSGSGFGTFYSLTISSMEAEDAAPYYCHQRSSFPPFGAGTKLELK | 7.17
antibody IPN-M9 (antibody, V domains shown, Mouse monoclonal antibody (NZBW hybridoma)) VH: QVQLQQPGAELVRPGASVKLSCKVSGYTFTRYWMHWVKQRPGQGLEWIGEINPSNSDTDYNEEFKSKATLTVDKSSSTAYMHLSSLTSEDSAVYYCTIDDSAYGWFAYWGQGTLVTVSA VL: DIVMTQSPAIMSASPGERVTMTCSASSSISYMHWYHQKPGTSPKRWIYDTSKLASGVPARFSGSGSGTSYSLTISSMEAEDAATYYCHQRSSFPTFGAGTKLELK | 4.69

Now for another entry.
Prompt: Any idea what Kd was measured for antibody IPN-M18 (antibody, V domains shown, Mouse monoclonal antibody (NZBW hybridoma)) VH: EVQLQQSGPELVKPGASVKISCKASGYSFTGYYIHWVKQSPEKSLEWIGEINPTTNDTTYNQKFKAKATLTVDKSSNTAYMQLKSLTSEDSAVYYCSRDISGPAWFAYWGQGTLVTVSA VL: DIVLTQTTAIMSASPGEKVTMTCSASSSISYMYWFQQKPGTSPKRWIYDTSKLASGVPARFSGSGSGTSYSLTISTMEAEDAATYYCHQRSSDPTFGGGTKLEINR ?
Response: 1.89
